Just for reference, ChEMBL document CHEMBL1201862 is where these values come from.

# Tested on: NCI-H460
# assay_protocol: NCI tumour cell line growth inhibition, 48 h
Where a name gives a salt, the structure may show the parent alone. Activity calls are given as the source filed them. No stated cut-off is given here; in the data, active = GI50 up to about 1.1 µM and inactive = higher.
value_type: GI50

Please review the entries below; each comes with its answer.
> print(dat)
                                   compound  value.type      reported.result
1  CCC1(C)NN=c2s/c(=C/c3ccc(OC)cc3)c(=O)n2N1 (stereo not given)        GI50  > 100 µM (inactive)
2  CN(C)CCC=C1c2ccccc2C=Cc2ccccc21 [CYCLOBENZAPRINE HYDROCHLORIDE]        GI50   15.4 µM (inactive)
3  COC(=O)C(=O)C(C(=O)C1=NS(=O)(=O)c2cc(S(N)(=O)=O)c(Cl)cc2N1)c1nc2ccc(C(=O)c3ccccc3)cc2nc1O (stereo not given)        GI50  > 100 µM (inactive)
4      C/C=C(\C)CC/C=C/CO[Si](C)(C)C(C)(C)C        GI50  > 100 µM (inactive)
5  CC(C)OCC(O)COc1cc(=O)oc2ccccc12 (stereo not given)        GI50  > 100 µM (inactive)

Dear colleague, could you please provide GI50 for the compounds listed below?
1. O=C(CC(=O)N1N=C(n2ccc3ccccc32)CC1c1ccccc1)Nc1ccccc1Cl (stereo not given)
2. CCOP(=O)(O)C(Nc1ccc(/N=N/c2ccccc2)cc1)c1cccc(C(Nc2ccc(/N=N/c3ccccc3)cc2)P(=O)(O)OCC)c1 (stereo not given)

Out:
1: > 100 µM (inactive); 2: 33.3 µM (inactive)
